Parameter: % Live Cells (in vitro), KDY66 cells, antibody plus anti-mouse IgG Fab-saporin. Scope: all listed entries.
# assayed target: T1, human DLL3 on cells (h293-hDLL3 cells; endogenous DLL3 on NTX tumor cells) (human, UniProt Q9NYJ7 27-618)
# T1 sequence: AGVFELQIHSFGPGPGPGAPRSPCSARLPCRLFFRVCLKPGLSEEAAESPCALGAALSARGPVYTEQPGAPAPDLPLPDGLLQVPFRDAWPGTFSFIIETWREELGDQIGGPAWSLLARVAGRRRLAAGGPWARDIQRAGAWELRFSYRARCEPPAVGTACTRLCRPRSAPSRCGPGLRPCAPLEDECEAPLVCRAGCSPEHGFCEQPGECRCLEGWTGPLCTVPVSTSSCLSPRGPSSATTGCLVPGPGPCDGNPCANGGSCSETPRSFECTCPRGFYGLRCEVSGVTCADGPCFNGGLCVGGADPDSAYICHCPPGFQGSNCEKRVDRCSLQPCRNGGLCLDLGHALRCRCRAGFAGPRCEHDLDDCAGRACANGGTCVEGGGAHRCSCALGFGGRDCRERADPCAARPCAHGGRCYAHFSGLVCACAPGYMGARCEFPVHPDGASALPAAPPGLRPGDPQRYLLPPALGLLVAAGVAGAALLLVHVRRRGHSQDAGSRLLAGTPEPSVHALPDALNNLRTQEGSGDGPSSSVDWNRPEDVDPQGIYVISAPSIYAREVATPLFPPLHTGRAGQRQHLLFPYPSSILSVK
# assay overview: cell-based or functional assay
Give a bare numeral; the unit % is implied.

Some binders with known % Live Cells (in vitro), KDY66 cells, antibody plus anti-mouse IgG Fab-saporin results, for comparison:
SC16.4 (antibody, V domains shown) VH: QIQLVQSGPELKKPGETVKISCKASGYTFTDYSMHWVKQAPGKGLKWMGWINTETGEPGYADDFKGRFAFSLETSASTAYLQINNLKNEDTATYFCARYDGYAMDYWGQGTSVTVSS VL: DIQMTQTTSSLSASLGDRVTISCRASQDISNYLNWYQQKPDGTVKLLIYYTSRLHSGVPSRFSGSGSGTDYSLTISNLELEDIATYFCQQGDMLPWTFGGGTKLEIK = 49
SC16.34 (antibody, V domains shown) VH: QIQLVQSGPELKRPGETVKISCKASGYTFTNYGMNWVKQAPGKGLKWMGWINTYTGDPTYADDFKGRFAFSLETSASTAYLQINNLKNEDTATYFCARIGGNSPSDYWGQGTSLTVSS VL: SIVMTQTPKFLLVSAGDRVTITCKASQSVSNDVAWYQQKPGQSPKLLIYYASNRYSGVPDRFTGSGYGTDFTFTISTVQAEDLAVYFCQQDYSSPWTFGGGTKLEIK = 12
SC16.25 (antibody, V domains shown) VH: QVTLKESGPGILQPSQTLSLTCSFSGFSLSTSGMGVGWIRQPSGEGLEWLTDIWWDDNKYYNPSLKSRLTISKDTSSNQVFLNITSVDTADTATYYCARRVNYYYDPYYAMDYWGQGTSVTVSS VL: QIVLTQSPAIMSASPGEKVTMTCSASSSVSYMHWYQQKSGTSPKRWIYDSSKLASGVPARFSGSGSGTSYSLTISSMEAEDAATYYCQQWSSNPLTFGAGTKLELK = 28

Next binder, please.
Req: I have this binder here, SC16.8 (antibody, V domains shown) VH: QAQLQQSGAELVRPGTSVKVSCKASGYAFTNYLIEWVKQRPGQGLEWIGVINPGTGGTNYNENFKGKATLTADKSSSTAYMQLSSLTSDDSAVYFCARSPYDYHEGAMDYWGQGTSVTVSS VL: EIQMTQSPSSMSASLGDRITITCQATQDIVKNLNWYQQKPGKPPSFLIYYAIELAEGVPSRFSGSGSGSDYSLTISNLESEDFADYYCLQFYEFPFTFGAGTKLELK , and I need its recorded % Live Cells (in vitro), KDY66 cells, antibody plus anti-mouse IgG Fab-saporin.
Resp: 82

Reference source for all entries: patent US9133271
